Test: Solubility of AQS ionic derivatives in MeCN, measured by UV-vis (Beer's law)
Format: physicochemical
Conditions: MeCN (acetonitrile), organic solvent or mixture, thermodynamic from solid, cooled to room temperature after stirring at 40° C.
property: solubility at 15 min

I am curious: what solubility at 15 min value has been reported for O=C1c2ccccc2C(=O)c2cc(S(=O)(=O)[O-])ccc21.[Na+] [NaAQS, sodium anthraquinone-2-sulfonate, reference compound] ? < 1000 µM

###

Assay: Solubility of AQS ionic derivatives in MeCN, measured by UV-vis (Beer's law)
Assay type: physicochemical
Details: cooled to room temperature after stirring at 40° C.
From the text: Beer's law was used to measure the concentration of the solution using pre-determined molar extinction coefficient using standard calibration curve.
property: Solubility (mM)
Give bare numbers, in mM.

Example molecules with recorded Solubility:
structure_notation=CC[N+](CC)(CC)CC.O=C1c2ccccc2C(=O)c2cc(S(=O)(=O)[O-])ccc21 property=Solubility observed=105
structure_notation=CCC[N+](CCC)(CCC)CCC.O=C1c2ccccc2C(=O)c2cc(S(=O)(=O)[O-])ccc21 property=Solubility observed=640

Next up:
I am curious: what Solubility value has been reported for `CCCC[N+](CCCC)(CCCC)CCCC.O=C1c2ccccc2C(=O)c2cc(S(=O)(=O)[O-])ccc21` ? 1260
